Tested on: PfSIP2 AP2 domain 1 (GST-tagged)
PROTOCOL DETAILS: gcPBM binding intensity (ln(normalized median fluorescence intensity)); higher = stronger DNA binding
Whole data set: some 25,000 sequences, median “ln(normalized median fluorescence intensity)” near 7.1, cut for the highest 2% near 10. The list comes from a sample in which the highest values are over-represented; it also holds close analogues and randomly drawn sequences.
Reported gcPBM binding intensity (ln) values follow for various sequences
Number, no unit, nothing else.

Some solved entries appear below for comparison.
{"SEQ": "TTTTTCTAATTATGCACACATATCAAAATATTCAAT [CACACA_site2749]", "gcPBM binding intensity (ln)": 9.18}
{"SEQ": "TTATATTAGCCGATGGTGCATATATTTATAGGAAAA [GTGCAC_site9518]", "gcPBM binding intensity (ln)": 10.1}
{"SEQ": "TTATATAGGCAGATGGTGCATCTATTTATAAGCAAC", "gcPBM binding intensity (ln)": 10.7}
{"SEQ": "TTGTATATTTTATGTACACACAATAAGTTAATATAA [CACACA_site4655]", "gcPBM binding intensity (ln)": 7.29}

Kindly consider the entry below.
Given the entry TCTAACATATCTTTAATACACACTTAAAAAAGTACT [CACACA_site652] , report its measured gcPBM binding intensity (ln).
7.03

---

Tested on: PfSIP2 AP2 domain 1 (GST-tagged)
PROTOCOL DETAILS: gcPBM binding intensity (ln(normalized median fluorescence intensity)); higher = stronger DNA binding
Whole data set: some 25,000 sequences, median “ln(normalized median fluorescence intensity)” near 7.1, cut for the highest 2% near 10. Only a selection was taken, and the highest values are over-represented in it overall.
Reported gcPBM binding intensity (ln) values follow for various sequences
Number, no unit, nothing else.

Some solved entries appear below for comparison.
{"SEQ": "CAGGGCAGGGGGAAGGGTACACATAAAAGAAAATAA [XGTACX_site172]", "METRIC NAME": "gcPBM binding intensity (ln)", "READOUT VALUE": 8.34}
{"SEQ": "AAAAAATTATAAAAGTGTACATATATATATATATAT [XGTACX_site154]", "METRIC NAME": "gcPBM binding intensity (ln)", "READOUT VALUE": 9.3}
{"SEQ": "TAAATTGGTGCAAAGTGTACATATATATCTTTCCTA [XGTACX_site5458]", "METRIC NAME": "gcPBM binding intensity (ln)", "READOUT VALUE": 11.4}

Given the entry AAAGAAATAAGGTGCACACATATACATATATATATA [CACACA_site429] , report its measured gcPBM binding intensity (ln).
11.9

AAATATAATATATGCACACATACATACAGATATATA [CACACA_site4235] ?
7.09

---

System: PfSIP2 AP2 domain 1 (GST-tagged)
PROTOCOL DETAILS: gcPBM binding intensity (ln(normalized median fluorescence intensity)); higher = stronger DNA binding
Over roughly 25,000 sequences, “ln(normalized median fluorescence intensity)” has its median near 7.1; the highest 2% begin near 10. Only a selection was taken, and the highest values are over-represented in it overall.
Reported gcPBM binding intensity (ln) values follow for various sequences
Number, no unit, nothing else.

Some solved entries appear below for comparison.
{"SEQ": "TTAATTAATTTTTCAGTGCAAATAAAAAATATTTAA", "TGT": "PfSIP2 AP2 domain 1 (GST-tagged)", "METRIC NAME": "gcPBM binding intensity (ln)", "READOUT VALUE": 7.78}
{"SEQ": "CATAATTTAAAAAAGGTGCAAAATGGATAATATATA [GTGCAC_site9657]", "TGT": "PfSIP2 AP2 domain 1 (GST-tagged)", "METRIC NAME": "gcPBM binding intensity (ln)", "READOUT VALUE": 11}
{"SEQ": "AAAAAAAAAAAAAAAGTGCATTAATAAATTTTAATA", "TGT": "PfSIP2 AP2 domain 1 (GST-tagged)", "METRIC NAME": "gcPBM binding intensity (ln)", "READOUT VALUE": 9.57}
{"SEQ": "ATTTTATATACAAAATGTACATATTTATTATATATG [XGTACX_site6732]", "TGT": "PfSIP2 AP2 domain 1 (GST-tagged)", "METRIC NAME": "gcPBM binding intensity (ln)", "READOUT VALUE": 6.99}
{"SEQ": "ATATATATTAAAAATAGTACATATAATAAAAATCAT [XGTACX_site4265]", "TGT": "PfSIP2 AP2 domain 1 (GST-tagged)", "METRIC NAME": "gcPBM binding intensity (ln)", "READOUT VALUE": 7.11}
{"SEQ": "TATATATTTATTAAATGTACATAACAAAAATGGTAT [XGTACX_site3577]", "TGT": "PfSIP2 AP2 domain 1 (GST-tagged)", "METRIC NAME": "gcPBM binding intensity (ln)", "READOUT VALUE": 7.41}
{"SEQ": "TAATATATTTATAGAGCATGCAACGTAATATTATTA [TGCATGCA_site863]", "TGT": "PfSIP2 AP2 domain 1 (GST-tagged)", "METRIC NAME": "gcPBM binding intensity (ln)", "READOUT VALUE": 7.12}
{"SEQ": "AAAAAAAAATACATATGTACTTATGTATAATGTTGT [XGTACX_site8104]", "TGT": "PfSIP2 AP2 domain 1 (GST-tagged)", "METRIC NAME": "gcPBM binding intensity (ln)", "READOUT VALUE": 7.14}
{"SEQ": "ATTATGTACAAAATGGTGCAATATTATACATATATA [GTGCAC_site9468]", "TGT": "PfSIP2 AP2 domain 1 (GST-tagged)", "METRIC NAME": "gcPBM binding intensity (ln)", "READOUT VALUE": 10.4}

Checklist item: gcPBM binding intensity (ln) tested on PfSIP2 AP2 domain 1 (GST-tagged), entry ATATTTAAAGAATAAGTGCAAAATGTAATTAATTTT [GTGCAC_site9901] , value?
7.91

---

Reported gcPBM binding intensity (ln) values follow for various sequences
System: PfSIP2 AP2 domain 1 (GST-tagged)
PROTOCOL DETAILS: gcPBM binding intensity (ln(normalized median fluorescence intensity)); higher = stronger DNA binding
Over roughly 25,000 sequences, “ln(normalized median fluorescence intensity)” has its median near 7.1; the highest 2% begin near 10. The entries come from a sample that favours the highest values as a whole.
Number, no unit, nothing else.

Some solved entries appear below for comparison.
{"SEQ": "GATTGATTATATGTGTGTACTTATATGTTAAAAAAA [XGTACX_site4784]", "gcPBM binding intensity (ln)": 7.29}
{"SEQ": "TTTTATAAATACACACGTACGTGTGCATAACGTTTT [XGTACX_site3199]", "gcPBM binding intensity (ln)": 7.21}
{"SEQ": "ATAAATAAATTTATACGTACACATAATATATATATA [XGTACX_site4634]", "gcPBM binding intensity (ln)": 8.89}
{"SEQ": "AAACAATTTGGGTGTACACATGATACGTTCGATGAG [CACACA_site5160]", "gcPBM binding intensity (ln)": 7.18}
{"SEQ": "TAAATATAACAGAATAATATGTGGATTAATAAATGA [CACACA_negctrl_site438]", "gcPBM binding intensity (ln)": 6.81}
{"SEQ": "TATAAATTTTGTTTAGCACACACACCGACATACATA [CACACA_site9033]", "gcPBM binding intensity (ln)": 7.28}

Given the entry AAGCGAATCTATATCACACACAAAAAAATCAGACTA [CACACA_site7072] , report its measured gcPBM binding intensity (ln).
6.94

ATTTTTTAAATTTAAACACACATTTTGTATATGTTT [CACACA_site1654] ?
7.02

---

System: PfSIP2 AP2 domain 1 (GST-tagged)
PROTOCOL DETAILS: gcPBM binding intensity (ln(normalized median fluorescence intensity)); higher = stronger DNA binding
The full ranking holds about 25,000 sequences; the median of “ln(normalized median fluorescence intensity)” is about 7.1, and the highest 2% start at about 10. The list comes from a sample in which the highest values are over-represented; it also holds close analogues and randomly drawn sequences.
METRIC NAME: gcPBM binding intensity (ln)

Some solved entries appear below for comparison.
{"SEQ": "TATATTACAAAAAGTACACACATAAATAAATACATA [CACACA_site975]", "gcPBM binding intensity (ln)": 7.17}
{"SEQ": "TAATGATAAATACATACACACAAAAAATAATATATA [CACACA_site2576]", "gcPBM binding intensity (ln)": 6.85}
{"SEQ": "AAATGAAAAATAAGGAAAAAAAAAAAAAAAAAAAAA [CACACA_negctrl_site1715]", "gcPBM binding intensity (ln)": 6.88}

Given the entry CCGTATATTTTATATAGTACTCATCATATATTTTTA [XGTACX_site5560] , report its measured gcPBM binding intensity (ln).
6.96

TTTATAAATATTCTCACACACTTTTTATTTTAACAA [CACACA_site6454] ?
6.93

TATTTAAAATAATAACAAAATTAACATAAATATATA [GTGCAC_negctrl_site472] ?
6.82

TTTATATAATTTTTTTGTACATATATATGAATACAT [XGTACX_site2316] ?
7.11

TTGTTAAATATTTATAAAATGAATTTAAAATGTACT [CACACA_negctrl_site665] ?
7.05
